Molecular target: SHP2 (Homo sapiens);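 note: compounds preincubated 30 min at room temperature in the assay mixture, activity referenced to a 0.5% (v/v) DMSO control taken as 100%, run in triplicate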
Sequence (Q06124 whole entry): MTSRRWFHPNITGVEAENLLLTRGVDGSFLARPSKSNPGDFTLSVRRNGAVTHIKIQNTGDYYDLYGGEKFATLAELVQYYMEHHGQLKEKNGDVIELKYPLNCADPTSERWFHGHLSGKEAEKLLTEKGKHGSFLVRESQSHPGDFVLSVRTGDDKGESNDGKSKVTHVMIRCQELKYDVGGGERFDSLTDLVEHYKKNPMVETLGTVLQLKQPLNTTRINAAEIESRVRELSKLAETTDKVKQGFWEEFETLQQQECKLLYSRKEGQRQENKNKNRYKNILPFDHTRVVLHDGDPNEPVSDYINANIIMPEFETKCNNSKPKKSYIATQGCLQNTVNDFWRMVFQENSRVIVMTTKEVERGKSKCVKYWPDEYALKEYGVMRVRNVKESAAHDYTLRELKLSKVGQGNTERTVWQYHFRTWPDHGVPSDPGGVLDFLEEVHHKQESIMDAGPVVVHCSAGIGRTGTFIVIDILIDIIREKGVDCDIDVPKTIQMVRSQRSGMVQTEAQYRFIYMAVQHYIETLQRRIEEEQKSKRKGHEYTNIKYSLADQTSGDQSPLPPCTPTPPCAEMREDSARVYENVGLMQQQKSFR
Test: biochemical
Settings: read-out: SHP2 inhibition (%)@0.1 μM
Response key: Fulfilled means inhibition at 0.1 µM >= 80%; Not fulfilled means inhibition at 0.1 µM < 80%.

Q. Decide: is the reported value of inhibition at 0.1 µM for C[S+]([O-])c1ccc2c(c1)[C@@H](N)C1(CCN(c3cnc(Sc4ccnc(N)c4Cl)c(N)n3)CC1)C2 (some centres unmarked) equal to or greater than 80%?
A. Not fulfilled

Q. Check the entry Nc1nccc(Sc2cnc(N3CCC4(CC3)Cc3sc(Cl)nc3[C@H]4N)cn2)c1Cl : does inhibition at 0.1 µM equal or exceed 80%?
A. Not fulfilled

Q. Quick check: does Nc1nc(N2CCC3(CC2)Cc2cc(F)c(F)c(F)c2[C@H]3N)cnc1Sc1ccnc(N)c1Cl have inhibition at 0.1 µM greater than or equal to 80%?
A. Not fulfilled

Q. Given CS(=O)(=O)Nc1ccc2c(c1)[C@@H](N)C1(CCN(c3cnc(Sc4ccnc(N)c4Cl)c(N)n3)CC1)C2 , state whether its inhibition at 0.1 µM is at least 80%.
A. Fulfilled

Q. Does the compound Nc1nccc(Sc2cnc(N3CCC4(CC3)Cc3ncccc3[C@H]4N)cn2)c1F have recorded inhibition at 0.1 µM that is 80% or more?
A. Fulfilled
